Test system: U251 CNS
Experiment: NCI-60 one-dose screen, 48 h
Details: 10 µM unless noted
Protocol: Growth inhibition of the U251 human tumor cell line is measured as a screen for anti-cancer activity. Cells are grown in 96 well plates and exposed to the test compound for 48 hours. Compounds are tested at a single concentration, which is 10^-5 M for most compounds. The reported endpoint is percent growth (GI% or GIPRCNT), where numbers from 0 - 100% represent growth inhibition, and numbers from -100% - 0 represent cell death. For example, a value of 40 represents 60% growth inhibition. […]
About 83,000 compounds went through this panel and 20% of them were active in at least one assay; those are over-represented in the sample as a whole. Active and inactive are the calls of the source. Rule for the calls: active = growth percent below 10; inactive = the rest.
# valid calls are TRUE = active, FALSE = inactive; nothing else

Example entries and their recorded answers appear below.
molecule=Cc1cc(C)c2c(-c3nnc(N)s3)cc(=O)oc2c1 answer_label=FALSE
molecule=O=C(NCCCNc1cc(-c2cn(-c3ccccc3)nc2-c2cccc(O)c2)ccn1)c1cccc(O)c1 answer_label=FALSE
molecule=Cn1cc2c(c1)-c1nc(Nc3ccccc3)ncc1CC2 answer_label=FALSE
molecule=O=C(Nc1ccc(Cl)cc1)Nc1ccc(Cl)c(C(F)(F)F)c1 answer_label=TRUE
molecule=CCCCCCN(CCCCCC)c1ccc(/C=C2/SC(=O)N(c3nc(N4CCCC4)nc(N4CCCC4)n3)C2=O)c(C)c1 answer_label=FALSE
molecule=COc1cc(/C=C/C(=O)N2CCN(C(=O)c3cc(OC)c(OC)c(OC)c3)CC2)ccc1OCCCN1C(=O)c2cccc3cccc(c23)C1=O answer_label=FALSE
molecule=NC(N)=NN=C(c1ccccc1)c1ccccc1 answer_label=FALSE
molecule=CCc1ccccc1NC(=O)/C(C#N)=C/c1ccc(OC)cc1 answer_label=FALSE

Tell me the assay call for "Cc1c2c(c(C)c3c1oc1cc(O)ccc13)C(=O)N(CCN1CCCCC1)C2=O" please.
FALSE

Tell me the assay call for "O=c1cc(-c2ccc(Cl)cc2)[nH]c2ccccc12" please.
FALSE

Tell me the assay call for "Cc1cccc(Cc2cnc(NC(=O)/C=C/c3ccco3)s2)c1" please.
FALSE

---

System: NCI-H460 lung
Test: NCI-60 one-dose screen, 48 h
Settings: 10 µM unless noted
About 83,000 compounds went through this panel and 20% of them were active in at least one assay; those are over-represented in the sample as a whole. Calls of active or inactive are those of the source. The calls were made as follows: active = growth percent below 10; inactive = the rest.
# valid calls are yes = active, no = inactive; nothing else

compound=COC(=O)[C@]12CC[C@@H](C)[C@H](C)[C@@H]1C1=CC[C@@H]3[C@@]4(C)C(C=O)=C[C@@](C)(COC(=O)c5ccco5)[C@@H]4C(=O)C[C@@]3(C)[C@]1(C)CC2 answer_label=no
compound=Cc1ccc2nc(C)c(-c3nnc(SCc4ccc(C#N)cc4)o3)n2c1 answer_label=no
compound=O=C(Nc1ccccc1Cl)Oc1ccc(-c2ccccc2)cc1 answer_label=no
compound="N#CC1=C(c2ccc(Br)cc2)NC(SCC(=O)c2ccc(Br)cc2)NC1=O (stereo not drawn)" answer_label=no
compound=CCn1c(C)nc2cc(C(N)=O)ccc21 answer_label=no

Tell me the assay call for "Cc1ccc2c(c1)Sc1c(ccc3ccccc13)N2" please.
no

Tell me the assay call for "CN(Cc1cnc2nc(N)nc(N)c2n1)c1ccc(C(=O)N[C@@H](CCc2nn[nH]n2)c2nn[nH]n2)cc1" please.
no
